- System: K4 kissing-loop RNA reporter;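 further: bound reporter read as fluorescence of individual clusters on recovered sequencing chips by microscopy, with normalized cluster intensities fitted with a binding model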
- protocol-description: apparent KD of K4 kissing-loop reporter; higher = weaker reporter binding
- test-conditions: Eterna round: R107; input ligand: FMN 200 uM
observation-type: apparent KD of K4 kissing-loop reporter
Units required after the number.

**Q:** Would you mind telling me what apparent KD of K4 kissing-loop reporter value was observed for UGAUACCAGACGGCCGCCACUACACCAGUCAAAGACUGGAUGUGAUGUUUGACCAGUGAUGUUGGUAGGACCGGGUCUGGUAUCU [TrypBX 5 #Palindromic #SwitchBubble #StaticStem] ?
**A:** 500 nM

**Q:** Bench note: what apparent KD of K4 kissing-loop reporter did UGAUACCAGACGGCCGCCACUAGGGCUAGCAAAGCUAGCAAGUGAUGUUUGAGGAGUGAUGUUCCUAGGACCGGGUCUGGUAUCU [TrypBX 1 #Palindromic #SwitchBubble #StaticStem] show?
**A:** 60.5 nM

**Q:** Need apparent KD of K4 kissing-loop reporter of AGCCGAAAGGCGAGUGCUGUCACUCCGGAAGGAGCGCAGGAAACUGCAGGUAGGUCGCCGGAGUGAUGUUCCGGUGCAGCACUCA [Omei KL Arginine A Exc B v6] , thanks.
**A:** 614 nM

**Q:** Need apparent KD of K4 kissing-loop reporter, item UAGGCGGGAGAAGGAUAUCUGUGAAACCUGCUGCCCAAUAAGUGAUGUUUAUAAAGGAAGCGUCAUAGAGAAGGUCUAACAAGUA [theeternabot_sameState_KL_FMN_B_1]
**A:** 512 nM

**Q:** Can you look up the measured apparent KD of K4 kissing-loop reporter of GAUGUAGAGGCGGCCGCCACUAGUGAUGUUAGUGAUGUUUGAUACUGUAUAUAUCGGCGUGUAGAUAGGACCGGGCCUGAUGGAG [dbbdmullin] for me?
**A:** 276 nM
